Assay: Experimental distribution coefficient (eLogD)
Format: physicochemical
Conditions: reverse stationary phase HPLC column (Ascentis RP-Amide), pH 7.4; S1 Data
Recorded endpoint: chromatographic logD
Quick one: just the number, no unit, thanks!

Consider the worked cases shown below.
Compound	chromatographic logD
Cn1nncc1C(=O)Nc1nc2ccc(C#N)cc2n1CC(F)(F)F [Compound 33]	4
CC(C)(C)Cn1c(NC(=O)c2cccnc2)nc2ccc(C#N)cc21 [Compound 41]	3.9
O=C(Cc1ccc(Cl)cc1)Nc1nc2ccc(F)cc2n1CC(F)(F)F [Compound 23]	4.46
CCCn1c(NC(=O)Cc2ccc(F)cc2)nc2ccccc21 [Compound 2, CCCn1c(nc2c1cccc2)NC(Cc3ccc(cc3)F)=O]	3.97
O=C(Cc1ccc(F)cc1)Nc1nc2ccc(F)cc2n1CC1CC1 [Compound 21]	4.12
Cn1nccc1C(=O)Nc1nc2cccnc2n1CC(C)(C)C [Compound 54]	4.04

For the compound shown here, CC(C)(C)Cn1c(NC(=O)c2ccn[nH]2)nc2ccc(C#N)cc21 [Compound 34] , give the reported chromatographic logD. 3.67
